Assay Summary: ovarian cancer cell viability with rucaparib, profiling panel, oncology-focused library, rucaparib conditional (AID 1508598)
Conditions Used: patient-derived ovarian cancer cells, CellTiter-Glo viability, 144 h; at 0.313 µM; OCI-P5x cells; with rucaparib 20 µM; hits give low values; 100% = cells with rucaparib alone
Measured Metric: viability (%)
Reply numerically in %, unit not repeated.

Examples with answers:
Molecule | Recorded Measurement
O=c1[nH]cc(F)c(=O)[nH]1 | 99.1
CC1=C(/C=C/C(C)=C/C=C/C(C)=C/C(=O)O)C(C)(C)CCC1 | 98.8
O=C1CCC(N2C(=O)c3ccccc3C2=O)C(=O)N1 (stereo not drawn) | 112
O=c1[nH]cnc2[nH]ncc12 | 102
CCCCCCNC(=O)n1cc(F)c(=O)[nH]c1=O | 101

Exercise: What viability value was documented for this molecule, CN(CCOc1ccc(CC2SC(=O)NC2=O)cc1)c1ccccn1 (stereo not drawn) ?
Solution: 106

Exercise: What viability value was documented for this molecule, `S=c1nc[nH]c2nc[nH]c12` ?
Solution: 89.7

Exercise: What viability value was documented for this molecule, `CC(C)C(=O)Nc1ccc([N+](=O)[O-])c(C(F)(F)F)c1` ?
Solution: 109

====

Assay Summary: growth inhibition of GSK3B-pretreated HCT116 cells – cell-based, CellTiter-Glo, 0.2 to 20 µM (AID 1117336)
Conditions Used: HCT116 viability after GSK3B inhibitor, at 20 µM
Calls of active or inactive are those of the source.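 The calls were made as follows: active = compounds lowering colon cancer cell viability after pretreatment blocking the GSK3B kinase; inactive = the rest.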
A correct response names exactly one class from active, inactive

Past entries and their recorded results:
Compound | Assigned Label
CCCCCCCCC=CCCCCCCCC(=O)NCCOC(=O)CC(C(=O)O)S(=O)(=O)O (stereo not drawn) | active
CN(C)CC/C=C1\c2ccccc2COc2ccccc21 | inactive

Exercise: Called result for `C[C@]12C=CC(=O)C=C1CC[C@@H]1[C@@H]2[C@@H](O)C[C@@]2(C)[C@H]1CC[C@]2(O)C(=O)CO`
Solution: inactive

Exercise: Called result for COc1cc2nc(N(C)CCCNC(=O)C3CCCO3)nc(N)c2cc1OC (stereo not drawn)
Solution: inactive

Exercise: Called result for `c1ccc2[nH]c(-c3cscn3)nc2c1`
Solution: inactive

Exercise: Called result for `CCC1(c2ccccc2)C(=O)NCNC1=O`
Solution: inactive

Exercise: Called result for `O=C(CO)[C@@H](O)[C@H](O)[C@@H](O)CO`
Solution: inactive

Exercise: Called result for `CCCCCCCCCCCCCCCCCC(=O)O`
Solution: inactive

Exercise: Called result for `COc1cc2[nH]c(=O)[nH]c(=O)c2cc1OC`
Solution: inactive

Exercise: Called result for `O=S(=O)(O)c1ccc2c(N=Nc3ccc(S(=O)(=O)O)c4ccccc34)c(O)c(S(=O)(=O)O)cc2c1`
Solution: inactive

Exercise: Called result for `COC[C@@H](c1ccc(C(F)(F)F)cc1)N1CCN(C2(C)CCN(C(=O)c3c(C)ncnc3C)CC2)C[C@H]1C`
Solution: inactive

Exercise: Called result for `CC1=NS(=O)(=O)c2cc(Cl)ccc2N1`
Solution: inactive

Exercise: Called result for `CCCCCCCCCCCCCCCC(=O)OC(C)C`
Solution: inactive

Exercise: Called result for `Nc1ccc(S(=O)(=O)c2ccc(N)cc2)cc1`
Solution: inactive

====

Assayed System: Calcium-activated potassium channel subunit alpha-1 (Homo sapiens) + Leucine-rich repeat-containing protein 26 (Homo sapiens) (UniProt Q12791+Q2I0M4)
Sequence (Q2I0M4 whole entry, looked up, one chain of several): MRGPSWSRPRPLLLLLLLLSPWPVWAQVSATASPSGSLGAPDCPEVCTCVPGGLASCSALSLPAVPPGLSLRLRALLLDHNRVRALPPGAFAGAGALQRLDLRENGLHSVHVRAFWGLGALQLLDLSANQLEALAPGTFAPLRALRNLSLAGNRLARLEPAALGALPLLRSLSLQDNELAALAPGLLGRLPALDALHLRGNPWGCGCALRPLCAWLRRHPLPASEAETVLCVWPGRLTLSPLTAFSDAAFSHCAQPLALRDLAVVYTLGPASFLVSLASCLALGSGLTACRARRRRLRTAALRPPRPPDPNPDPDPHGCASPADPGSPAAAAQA
Assay Summary: modulators of BK channel variants, profiling panel, selectivity assay, cell-based, U2OS BacMam, thallium flux, beta subunits (AID 1259406);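 note: initial slope of Thallos dye fluorescence rise after thallium is added; log ratio against the mean of 0.3% DMSO vehicle wells on the same plate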
Conditions Used: F380Y/Slo1WT/gamma1, at 30 µM
The source made the active and inactive calls.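 How the source made its calls: active means thallium flux through the channel raised or lowered by more than 3 SD from vehicle-only wells, actives on both sides; inactive means the rest.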
Measured Metric: log fold change Tl+ flux

Examples with answers:
Molecule | Recorded Measurement
c1ccc2c(CC3=NCCN3)cccc2c1 | 0.0291 (inactive)
CC(=O)O[C@]1(C(C)=O)CC[C@H]2[C@@H]3C=C(C)C4=CC(=O)CC[C@]4(C)[C@H]3CC[C@@]21C | -0.00133 (inactive)

Exercise: What log fold change Tl+ flux value was documented for this molecule, `NS(=O)(=O)c1cc2c(cc1Cl)NCNS2(=O)=O` ?
Solution: -0.0022 (inactive)

Exercise: What log fold change Tl+ flux value was documented for this molecule, OC(CCN1CCCC1)(c1ccccc1)C1CCCCC1 (centres undefined) ?
Solution: 0.011 (inactive)
